Taken from patent US20240392013A1.

# key: entry, value: cyIL1RAP kon(1/Ms)
System: cyIL1RAP
Assay Info: Kinetics of IL1RAP mAbs by Octet, cynomolgus IL1RAP
Assay type: binding
Dear colleague, please return just the value in M⁻¹ s⁻¹, with no unit written.

Examples with answers:
- Molecule: "74804_25H09A: anti-IL1RAP mAb; VH SEQ ID NO:9, VL SEQ ID NO:25, κ light chain (antibody, V domains shown, 74804_25H09A VH; 74804_25H09A VL) VH: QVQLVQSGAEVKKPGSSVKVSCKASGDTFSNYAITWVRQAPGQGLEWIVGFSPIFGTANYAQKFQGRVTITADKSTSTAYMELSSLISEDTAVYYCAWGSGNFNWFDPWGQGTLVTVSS VL: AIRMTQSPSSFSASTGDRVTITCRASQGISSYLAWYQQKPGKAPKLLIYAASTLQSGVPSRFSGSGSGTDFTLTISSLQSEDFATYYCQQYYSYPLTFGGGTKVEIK"
  Unit Annotation: "M⁻¹ s⁻¹"
  cyIL1RAP kon(1/Ms): 142000
- Molecule: "74804_29D13A: anti-IL1RAP mAb; VH SEQ ID NO:6, VL SEQ ID NO:22, κ light chain (antibody, V domains shown, 74804_12A21B VH and 74804_29D13A VH; 74804_07K10A VL, 74804_29D13A VL and 74804_43F04A VL) VH: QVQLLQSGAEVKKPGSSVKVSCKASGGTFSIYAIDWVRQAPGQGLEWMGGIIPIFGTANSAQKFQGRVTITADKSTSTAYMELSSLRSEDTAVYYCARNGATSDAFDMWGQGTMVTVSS VL: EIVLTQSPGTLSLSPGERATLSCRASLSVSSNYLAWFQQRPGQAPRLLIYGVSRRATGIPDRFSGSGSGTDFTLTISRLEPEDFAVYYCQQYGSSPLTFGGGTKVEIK"
  Unit Annotation: "M⁻¹ s⁻¹"
  cyIL1RAP kon(1/Ms): 329600

Consider now this further molecule.
### Prompt For the molecule 74804_43F04A: anti-IL1RAP mAb; VH SEQ ID NO:7, VL SEQ ID NO:22, κ light chain (antibody, V domains shown, 74804_43F04A VH; 74804_07K10A VL, 74804_29D13A VL and 74804_43F04A VL) VH: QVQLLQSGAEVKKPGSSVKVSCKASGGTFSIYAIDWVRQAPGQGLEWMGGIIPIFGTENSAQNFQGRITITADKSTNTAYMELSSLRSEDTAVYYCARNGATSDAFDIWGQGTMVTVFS VL: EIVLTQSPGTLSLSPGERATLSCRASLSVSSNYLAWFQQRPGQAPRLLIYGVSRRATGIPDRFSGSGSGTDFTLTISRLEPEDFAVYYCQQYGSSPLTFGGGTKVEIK , what cyIL1RAP kon(1/Ms) is on record?
### Response 412100
